Tested on: SF-268
Protocol: NCI tumour cell line growth inhibition, 48 h
Activity calls are given as the source filed them. No stated cut-off is given here; in the data, active = GI50 up to about 1.1 µM and inactive = higher. Residues, ends and D or L forms follow the SMILES beside them. *: point of attachment. Boc = CC(C)(C)OC(=O)*
One label from this list, please: active, inactive

# count of solved cases: 2
{"Compound": "N#Cc1c(OCCF)c2ccccc2n2c1nc1ccccc12", "Label class": "inactive"}
{"Compound": "CC(=O)OC1CCC2(C)C3CCC4(C)C(c5ccc(=O)oc5)CC5OC54C3CCC2(O)C1 (centres undefined)", "Label class": "active"}

Qu. Short answer needed: outcome of this test for CC(C)(C)OC(=O)NC(Cc1ccc(O)cc1)C(=O)NC(CCCCN)C(=O)O (stereo not drawn) (Boc-Tyr-Lys-OH; configuration not given here) ?
Ans. inactive

Qu. Outcome logged for C=C1[C@H](OC(C)=O)[C@H]2[C@@H](OC(C)=O)[C@@H](C)C[C@]2(C)C(=O)[C@H](C)/C=C/C(C)(C)C(=O)[C@H](OCC(C)C)[C@H]1OC(C)=O in this assay:
Ans. inactive

###

Tested on: NCI-H460
Protocol: NCI tumour cell line growth inhibition, 48 h
Calls of active or inactive are those of the source. Rule as the data show it: active = GI50 up to about 1.1 µM and inactive = higher.
The categories you may choose from are true (1) (active), false (0) (inactive)

See these solved cases before continuing.
{"Compound": "CCOc1ccc(NC(=O)c2c(N/N=C/c3ccc(OC)cc3)nc(=O)[nH]c2C)cc1", "Experimental system": "NCI-H460", "Label class": "false (0)"}
{"Compound": "COC(=O)c1c[nH]c(=O)[nH]c1=O", "Experimental system": "NCI-H460", "Label class": "false (0)"}
{"Compound": "COC(=O)N/N=C(\\c1ccccc1)c1ccc(OC)cc1", "Experimental system": "NCI-H460", "Label class": "false (0)"}
{"Compound": "CCOC(=O)C1=C(C)CC2C(=O)OC(=O)C2C1(C)C (stereo not drawn)", "Experimental system": "NCI-H460", "Label class": "false (0)"}
{"Compound": "CCc1cccc(C(C)C)c1NC(=O)C(=O)C(C(=O)C(=O)OC)c1nc2ccccc2nc1O (stereo not drawn)", "Experimental system": "NCI-H460", "Label class": "false (0)"}

Qu. What did this assay record as the result for Cn1c(=O)[nH]c2nccnc2c1=O ?
Ans. false (0)

Qu. Hi, sorry to bother you, what did the test record for NC(=O)Cn1c(=O)[nH]c(=O)c2[nH]cnc21 ?
Ans. false (0)

Qu. Recorded test outcome, item Cc1cccc2[s+]snc12
Ans. false (0)

Qu. What did this assay record as the result for CC1(C)[N+]([O-])=[N+]([O-])C1(C)O (stereo not drawn) ?
Ans. false (0)

###

# maps each entry to its GI50
Tested on: IGROV-1
Protocol: NCI tumour cell line growth inhibition, 48 h
Active and inactive are the calls of the source. Rule as the data show it: active = GI50 up to about 1.1 µM and inactive = higher. Square brackets hold non-standard residues; d marks the D form. Peptide text beside a SMILES is read from it. * marks the point of attachment. Phe(4-NO2) = N[CH](Cc1ccc([N+](=O)[O-])cc1)C(=O)O; Cbz = O=C(OCc1ccccc1)*

{"Compound": "CCOC(=O)CCC(NC(=O)OCc1ccccc1)C(=O)NC(CCC(=O)OCC)C(=O)NC(CCC(=O)OCC)C(=O)NC(CCC(=O)OCC)C(=O)NC(CCC(=O)OCC)C(=O)NC(Cc1ccc([N+](=O)[O-])cc1)C(=O)NC(CCC(=O)OCC)C(=O)NC(CCC(=O)OCC)C(=O)NC(CCC(=O)OCC)C(=O)NC(CCC(=O)OCC)C(=O)NC(CCC(=O)OCC)C(=O)OCC (stereo not given) (Cbz-E(OEt)E(OEt)E(OEt)E(OEt)E(OEt)[Phe(4-NO2)]E(OEt)E(OEt)E(OEt)E(OEt)E(OEt)-OEt; configuration not given here)", "Reported result": "> 50 µM (inactive)"}
{"Compound": "CCN(CC)CC1CCCCN1CC(=O)N1c2ccccc2NC(=O)CC1C (stereo not given)", "Reported result": "> 100 µM (inactive)"}
{"Compound": "COC(=O)[C@@H]1N2C(=S)N(c3ccccc3)C(=O)[C@H]2SC1(C)C", "Reported result": "> 100 µM (inactive)"}
{"Compound": "CCOC(=O)/C(C#N)=C1\\c2c([nH]c(=S)[nH]c2=O)Oc2ccc3ccccc3c21", "Reported result": "> 100 µM (inactive)"}

Then there is this compound:
Qu. Any idea what its GI50 is? The compound is CCOc1ccc(NC(=O)CC#N)cc1
Ans. > 100 µM (inactive)

###

System: M14
Protocol: NCI tumour cell line growth inhibition, 48 h
Active and inactive are the calls of the source. No stated cut-off is given here; in the data, active = GI50 up to about 1.1 µM and inactive = higher. *1 amine or outer side, *2 acyl side, *3 side chain or, on linkers, in order; H or OH if unused. Where a SMILES comes first, the peptide text is derived from it. Bridges are numbered along the chain shown (N, C = ends). Roman numbers before positions name the chains, in order. [ ]: non-standard residue; d: D form. Actinocin(9to1) = Cc1c2oc3c(C)ccc(C(=O)[*:1])c3nc-2c(C(=O)[*:2])c(N)c1=O; Hyp = O=C(O)[CH]1C[CH](O)CN1; NMeV = CN[CH](C(=O)O)C(C)C; Sar = CNCC(=O)O
Result category, one only: yes for active, no for inactive

Some solved entries appear below for comparison.
{"Compound": "O=c1[nH]c2cc3cccnc3c(Cl)c2nc1C(F)(F)F", "Label class": "no"}
{"Compound": "COc1ccc(-c2cc3cc(Cl)cc(Cl)c3oc2=O)cc1OC", "Label class": "no"}
{"Compound": "CC[C@@]12CCCN3CC[C@]4(c5cccc(OC)c5N(C(C)=O)[C@@H]4CC1)[C@H]32", "Label class": "no"}

Now look at this one.
Qu. Recorded call for Cc1c2oc3c(C)ccc(C(=O)NC4C(=O)NC(C(C)C)C(=O)N5CC(O)CC5C(=O)N(C)CC(=O)N(C)C(C(C)C)C(=O)OC4C)c3nc-2c(C(=O)NC2C(=O)NC(C(C)C)C(=O)N3CC(O)CC3C(=O)N(C)CC(=O)N(C)C(C(C)C)C(=O)OC2C)c(N)c1=O (configuration not stated) (I: TV[Hyp][Sar][NMeV] / II: TV[Hyp][Sar][NMeV]; ester I:1-I:C, II:1-II:C; linker I:N-II:N via Actinocin(9to1); configuration not given here) ?
Ans. yes

###

System: MDA-N
Protocol: NCI tumour cell line growth inhibition, 48 h
Activity calls are given as the source filed them. Rule as the data show it: active = GI50 up to about 1.1 µM and inactive = higher.
Observation type: GI50

Qu. Record lookup: for MDA-N, what GI50 belongs to CC1C2(C)OC(=N)C(C#N)(C(c3ccco3)O2)C1(C#N)C#N (stereo not given) ?
Ans. 19.8 µM (inactive)

###

Test system: CCRF-CEM
Protocol: NCI tumour cell line growth inhibition, 48 h
Calls of active or inactive are those of the source. Cut-off read from the data, not from the text of the source: active = GI50 up to about 1.1 µM and inactive = higher. Square brackets hold non-standard residues; d marks the D form. Peptide text beside a SMILES is read from it. * marks the point of attachment. Phe(4-NO2) = N[CH](Cc1ccc([N+](=O)[O-])cc1)C(=O)O; Cbz = O=C(OCc1ccccc1)*
Observation type: GI50

Examples with their reported GI50 follow.
{"Compound": "COC(=O)CC1(O)C=CC(=O)C=C1", "Observation type": "GI50", "Reported result": "1.99 µM (inactive)"}
{"Compound": "CC[P+]1(c2ccccc2)[C@@H](C)CC[C@@H]1C", "Observation type": "GI50", "Reported result": "> 100 µM (inactive)"}
{"Compound": "COc1ccc(NC(=O)CC(=O)N2N=C(N3c4ccccc4Sc4ccccc43)CC2c2ccccc2)cc1 (centres undefined)", "Observation type": "GI50", "Reported result": "> 100 µM (inactive)"}

Qu. For NC(=O)Cn1c(=O)[nH]c(=O)c2[nH]cnc21 , what is its reported GI50?
Ans. > 100 µM (inactive)

Qu. I am curious: what GI50 value has been reported for CC(=O)CC(=O)OC1CC(C)CCC1C(C)C (centres undefined) ?
Ans. 11.7 µM (inactive)

Qu. Could you tell me which GI50 is on file for COc1ccc2c(c1)Oc1cc(O)ccc1[C@H]2c1ccccc1C(=O)NC(C)c1ccccc1 (some centres undefined) ?
Ans. 16 µM (inactive)

Qu. What GI50 value was documented for this compound, COC(=O)C(CCC1C=CN(S(=O)(=O)c2ccc(C)cc2)C1)/N=C/c1ccccc1 (centres undefined) ?
Ans. 1.99 µM (inactive)

Qu. So what's the measured GI50 for this one? O=c1cc(/N=N\c2ccc(Cl)c(Cl)c2)[nH]c(=O)[nH]1
Ans. 0.033 µM (active)

Qu. Look up GI50 for this compound: C=C(C)C1CCC2(C)C1CCC1(C)C2CCC2C3(C)C4OC(OC4=O)C(C)(C)C3CCC21C (centres undefined)
Ans. 80.4 µM (inactive)

Qu. Given COc1cc(OC)c(OC)cc1/C=C/c1ccccn1 , state its recorded GI50.
Ans. > 10 µM (inactive)

Qu. Fill in: GI50 of CSc1nc(Cl)c(Br)c(Sc2nc(N)nc3nc[nH]c23)n1 is ___
Ans. 2.77 µM (inactive)

Qu. GI50 for O=C1CC(NC(=O)C(F)(F)F)c2c1csc2Br (centres undefined) ?
Ans. 33.6 µM (inactive)

Qu. Look at this compound and give its reported GI50. CCCCCCCCCCCCCCNCC(OCC)OCC
Ans. 4.84 µM (inactive)

Qu. Quick check: GI50 of CCOC(=O)CCC(NC(=O)OCc1ccccc1)C(=O)NC(CCC(=O)OCC)C(=O)NC(CCC(=O)OCC)C(=O)NC(CCC(=O)OCC)C(=O)NC(CCC(=O)OCC)C(=O)NC(Cc1ccc([N+](=O)[O-])cc1)C(=O)NC(CCC(=O)OCC)C(=O)NC(CCC(=O)OCC)C(=O)NC(CCC(=O)OCC)C(=O)NC(CCC(=O)OCC)C(=O)NC(CCC(=O)OCC)C(=O)OCC (centres undefined) (Cbz-E(OEt)E(OEt)E(OEt)E(OEt)E(OEt)[Phe(4-NO2)]E(OEt)E(OEt)E(OEt)E(OEt)E(OEt)-OEt; configuration not given here) ?
Ans. > 50 µM (inactive)

Qu. // GI50 lookup, key: COc1ccc(OC)c(/C=N/N=C2\C(=O)Nc3c(Cl)cc(Cl)cc32)c1
Ans. 59.7 µM (inactive)

Qu. Given the entry O=S(=O)(c1ccccc1)c1ccc(/N=N/O)nc1 , report its measured GI50.
Ans. 59.4 µM (inactive)

Qu. I have this compound here, COC(=O)C1C(=O)NC2(C)CC1c1ccccc1O2 (centres undefined) , and I need its recorded GI50.
Ans. > 100 µM (inactive)

Qu. Query: GI50; subject: CCOc1ccccc1NC(=O)C(=O)Cc1nc2ccccc2s1
Ans. > 100 µM (inactive)

Qu. Reported GI50, compound CC1=C2C(=O)c3ccccc3C(=O)[C@H]2C[C@@H](N2CCCCCC2=O)O1 : ____
Ans. 3.44 µM (inactive)
